# Test details: MTT cell viability after one week steatosis (ranking of target molecules)
# Format: cell-based, human
# Test parameters: human, HepG2 cells (wild type); HepG2, 10 μM, one week steatosis induce media, MTT; Control 100.00

Smiles representation | viability at 1 week, 10 µM
N#Cc1c(NC(=O)c2cccc3ccccc23)sc2c1CCCC2 | 56.4%

----------
# Test system: HepG2 cells
# Test details: Triglyceride (TAG) measurement assay, one week steatosis model
# Type: cell-based, human
# Test parameters: Homo sapiens, HepG2, 168 h; ratio between TAG content and cell viability; Control 100.0; read-out: TAG/cell viability
Quantity: activity at 10 µM (%)

Smiles representation | Quantity | Readout value
Cc1ccc(F)c(NC(=O)N2CCc3c(sc(NC(=O)c4cccc5ccccc45)c3C#N)C2)c1 | activity at 10 µM | 26.4
N#Cc1c(NC(=O)c2cccc3ccccc23)sc2c1CCN(CC(=O)Nc1ccnc(Cl)n1)C2 | activity at 10 µM | 40.9
N#Cc1ccc(C(=O)N2CCc3c(sc(NC(=O)c4cccc5ccccc45)c3C#N)C2)cc1 | activity at 10 µM | 37.6
C#Cc1cccc(NC(=O)CN2CCc3c(sc(NC(=O)c4cccc5ccccc45)c3C#N)C2)c1 | activity at 10 µM | 84.2
N#Cc1c(NC(=O)c2cccc3ccccc23)sc2c1CCN(CC(=O)c1ccccc1)C2 | activity at 10 µM | 26.2
N#Cc1c(NC(=O)c2cccc3ccccc23)sc2c1CCN(C(=O)Nc1ccccc1F)C2 | activity at 10 µM | 31.2
CCN(C)C(=O)N1CCc2c(sc(NC(=O)c3cccc4ccccc34)c2C#N)C1 | activity at 10 µM | 27.2
N#Cc1c(NC(=O)c2cccc3ccccc23)sc2c1CCN(C(=O)Nc1cccc3ccccc13)C2 | activity at 10 µM | 29.8
C=CC(=O)N1CCc2c(sc(NC(=O)c3cccc4ccccc34)c2C#N)C1 | activity at 10 µM | 31.8
N#Cc1c(NC(=O)c2cccc3ccccc23)sc2c1CCN(C(=O)Nc1ccccc1Cl)C2 | activity at 10 µM | 50.8
CCOC(=O)CN1CCc2c(sc(NC(=O)c3cccc4ccccc34)c2C#N)C1 | activity at 10 µM | 68.2
N#Cc1c(NC(=O)c2cccc3ccccc23)sc2c1CCCC2 | activity at 10 µM | 58.4
CC(C)CCN1CCc2c(sc(NC(=O)c3cccc4ccccc34)c2C#N)C1 | activity at 10 µM | 40.6
Cc1ccccc1NC(=O)N1CCc2c(sc(NC(=O)c3cccc4ccccc34)c2C#N)C1 | activity at 10 µM | 31.2
N#Cc1c(NC(=O)c2cccc3ccccc23)sc2c1CCN(CC(=O)Nc1ccccc1)C2 | activity at 10 µM | 49
COc1ccc(C(=O)Nc2sc3c(c2C#N)CCCCC3)cc1OC | activity at 10 µM | 77.6
CN(C)C(=O)N1CCc2c(sc(NC(=O)c3cccc4ccccc34)c2C#N)C1 | activity at 10 µM | 31.4
COc1ccc(C(=O)Nc2sc3ccccc3c2C#N)c2ccccc12 | activity at 10 µM | 60.5

----------
Below is a list of entries, each paired with its recorded MCV value.
# Test details: In vivo toxicological study in rats: haematology
# Set-up: species or system rats of the Wistar strain
# Test parameters: male, 30 mg/kg oral daily 7 d
Quantity: MCV (fL)

Smiles representation | Reading unit | Readout value
N#Cc1c(NC(=O)c2cccc3ccccc23)sc2c1CCN(CC(=O)Nc1cccc(Br)c1)C2 | fL | 55.5
COc1ccc(C(=O)Nc2sc3c(c2C#N)CCCCC3)cc1OC | fL | 58.2
COc1ccccc1NC(=O)N1CCc2c(sc(NC(=O)c3cccc4ccccc34)c2C#N)C1 | fL | 58.0
N#Cc1c(NC(=O)c2cccc3ccccc23)sc2c1CCN(C(=O)Nc1ccccc1OC(F)(F)F)C2 | fL | 56.3
